Origin of values: ChEMBL document CHEMBL1140426

Below are Ki values measured for D(3) dopamine receptor (Homo sapiens, UniProt P35462).
All answers are understood in nM, so give the number only.

Give Ki (D(3) dopamine receptor (Homo sapiens, UniProt P35462)) of the following compound: COc1ccccc1N1CCN(CCCCNC(=O)c2ccc3c(c2)Cc2ccccc2-3)CC1
0.52

Give Ki (D(3) dopamine receptor (Homo sapiens, UniProt P35462)) of the following compound: COc1ccccc1N1CCN(CCCCNC(=O)c2cccc3ccccc23)CC1
32.6

Give Ki (D(3) dopamine receptor (Homo sapiens, UniProt P35462)) of the following compound: O=C(NCCCCN1CCN(c2cccc(Cl)c2Cl)CC1)c1cccc2ccccc12
6.9

Give Ki (D(3) dopamine receptor (Homo sapiens, UniProt P35462)) of the following compound: COc1ccccc1N1CCN(CCCCNC(=O)c2ccc(-c3ccccc3)cc2)CC1
0.3

Give Ki (D(3) dopamine receptor (Homo sapiens, UniProt P35462)) of the following compound: O=C(NCCCCN1CCN(c2cccc(Cl)c2Cl)CC1)c1ccc2ccccc2c1
7.9

Give Ki (D(3) dopamine receptor (Homo sapiens, UniProt P35462)) of the following compound: O=C(NCCCCN1CCN(c2cccc(Cl)c2Cl)CC1)c1ccc(-c2ccccc2)cc1
1.98

Give Ki (D(3) dopamine receptor (Homo sapiens, UniProt P35462)) of the following compound: O=C(NCCCCN1CCN(c2cccc(Cl)c2Cl)CC1)[C@H]1CC[C@H](c2ccccc2)CC1
22.8

Give Ki (D(3) dopamine receptor (Homo sapiens, UniProt P35462)) of the following compound: O=C(NCCCCN1CCN(c2cccc(Cl)c2Cl)CC1)c1ccccc1
11.9
